Biological target: T1, C-C motif chemokine 14 (CCL14), human (human, UniProt Q16627 20-93)
T1 construct: Residues 20-93 are the mature CCL14 it describes, with signal peptide 1-19; also called HCC-1; NCC-2
T1 sequence: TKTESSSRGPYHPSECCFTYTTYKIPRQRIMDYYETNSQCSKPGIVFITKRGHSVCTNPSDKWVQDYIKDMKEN
Experiment: lateral flow sandwich, CCL14 5 ng/mL; labelled conjugate, with 2H3/2K1 on the strip
QUANTITY KIND: binding result

[[record]]
binder = "18H1/18K1 (antibody, V domains shown, Rabbit monoclonal IgG expressed in HEK cells; also called 18H1 heavy chain / 18K1 light chain) VH: QSVKESEGGLFKPADTLTLTCTVSGFSLSSYAINWVRQAPGEGLEYIGWISDVGTAYYASWAKSRSTITRNTDENTVTLKMTSLTAADTATYFCAGGDGSYSNYWVSDIWGQGTLVTVSS VL: AVVLTQTASPVSAPVGGTVTVKCQASQTINSRLAWYQQKQGQPPKLLIYEASTLASGVPSRFKGSGSGTEYTLTIRGVECADAATYSCQEYADENIFGGGTEVVVK"
measurement = "binds"

[[record]]
binder = "19H2/19K3 (antibody, V domains shown, Rabbit monoclonal IgG expressed in HEK cells; also called 19H2 heavy chain / 19K3 light chain) VH: QSVKESEGGLFKPADTLTLTCTVSGFSLSSFAINWVRQAPGEGLEYIGWISDVGTAYYASWAKSRSTITRNADENTVTLKMTSLTAADTATYFCAGGDGSYSNYWVSDIWGQGTLVTVSS VL: AVVLTQTASPVSAPVGGTVTVKCQASQTINNRLAWYQQKQGQPPKLLIYEASKLASGVPSRFKGSGSGTEYTLTIRGVECADAATYSCQEYADENIFGGGTEVVVK"
measurement = "binds"

[[record]]
binder = "4H1/4K3 (antibody, V domains shown, Rabbit monoclonal IgG expressed in HEK cells; Used as a labelled conjugate; also called 4H1 heavy chain / 4K3 light chain) VH: QSVKESEGGLFKPADTLTLTCTVSGFSLSSFAINWVRQAPGEGLEYIGWISDVGTAYYASWAKSRSTITRNTDENTATLKMTSLTAADTATYFCAGGDGSYSNYWVSDIWGQGTLVTVSS VL: AVVLTQTASPVSAPVGGTVTVKCQASQTINNRLAWYQQKQGQPPKLLIYEASKLASGVPSRFKGSGSGTEYTLTIRGVECADAATYSCQEYADENIFGGGTEVVVK"
measurement = "binds"

[[record]]
binder = "17H2/17K1 (antibody, V domains shown, Rabbit monoclonal IgG expressed in HEK cells; Used as a labelled conjugate; also called 17H2 heavy chain / 17K1 light chain) VH: QSVKESEGGLFKPADTLTLTCTVSGFSLSSYAINWVRQAPGEGLEYIGWISDVGTAYYASWAKSRSTITRNTDENTVTLKMTSLTAADTATYFCAGGDGSYSNYWVSDIWGQGTLVTVSS VL: AVVLTQTASPVSAPVGGTVTVKCQASQTINSRLAWYQQKQGQPPKLLIYEASTLASGVPSRFKGSGSGTEYTLTIRGVECADAATYSCQEYADENIFGGGTEVVVK"
measurement = "binds"

